Origin of measurements: the CheMixHub viscosity set

Each record here notes measured viscosity.
- CONDITION LABEL: 323.15 K; 101 kPa
The figure you give is taken to be in mPa·s; do not add the unit.

Solved entries (count: 5):
# STRUCTURE NOTATION, RESULT UNIT, viscosity
rows = [
    ("CC(O)C(=O)[O-].CN(C)C(=N)[NH+](C)C", "mPa·s", 1370),
    ("CCCCCCCC/C=C\\CCCCCCCC(=O)O", "mPa·s", 14.38),
    ("Cc1cc(C)cc(C)c1", "mPa·s", 0.495),
    ("CC=CC(=O)OCC", "mPa·s", 0.5471),
    ("CCOS(=O)(=O)[O-].CC[n+]1ccn(C)c1", "mPa·s", 34.24),
]

Q: Quick one: viscosity for `CC[n+]1ccccc1.O=S(=O)([O-])C(F)(F)F` ?
Ans: 24.47

====

- CONDITION LABEL: 298.15 K; 101 kPa
MEASURED ENDPOINT: viscosity (mPa·s)
Kindly answer with a numeric value in mPa·s, unit omitted.

Q: If you can, please state the reported viscosity value of `CC(C)CN` .
Ans: 0.563

Q: Could you share which viscosity value was measured for `CCCCCCCC/C=C\CCCCCCCC(=O)O` ?
Ans: 35.41

Q: Which viscosity value belongs to `CC=CC(=O)OCC` ?
Ans: 0.7576

Q: What does the record list as viscosity for `CC[n+]1ccccc1.O=S(=O)([O-])C(F)(F)F` ?
Ans: 60.58
